# credit: ChEMBL document CHEMBL3507680

- method: Human HepG2 cell viability assay in 384 well format
- Format: toxicity, cell-based
- Set-up: dose 125 nL, time 70.5 hour; concentration not given beside the values
- condition_info: HepG2 cells, read-out: Inhibition
readout_type: cytotoxicity at 70.5 h (%)
Your answer is read as %, so omit the unit and give the number.

Here are 6 molecules together with their reported answers.
Cc1ccnn1CCC(=O)N1CCOC(CCc2ccccc2)C1 (configuration not stated)    -7.51
Cc1cccnc1CCNCC1(O)CCCN(CC2CCCCC2)C1=O (configuration not stated)    35.9
OCCCc1nncn1-c1cccc(C(F)(F)F)c1    -1.23
Cn1c(CN2CCCCCC2)cc(=O)c(O)c1CN1CCCC1    51.6
Cc1nnc(CSc2ccccn2)o1    -13.6
CC(C)c1nccn1C1CCCN(C(=O)c2ccnc(N(C)C)c2)C1 (configuration not stated)    -2.47

stdin: Look up cytotoxicity at 70.5 h: O=S(=O)(c1cccs1)N1CCCCC1c1ccn[nH]1 (configuration not stated)
stdout: -2.26

stdin: Look up cytotoxicity at 70.5 h: CCN(CC1CN(Cc2nccn2CC)CCO1)c1cccnn1 (configuration not stated)
stdout: -9.34

stdin: Look up cytotoxicity at 70.5 h: `Cc1occc1C(=O)N1CCCn2cnc(CN3CCCC3=O)c2C1`
stdout: -0.779

* * *

- method: Human HepG2 cell viability assay in 384 well format
- Assay type: toxicity, cell-based
- Set-up: dose 125 nL, time 70.5 hour; concentration not given beside the values
- condition_info: HepG2 cells, read-out: Inhibition
readout_type: cytotoxicity at 70.5 h (%)
Your answer is read as %, so omit the unit and give the number.

Here are 3 compounds together with their reported answers.
CCC1(CO)CCCN(C(=O)c2cc(COc3ccccc3F)[nH]n2)C1 (stereo not drawn)    -0.863
Cc1noc(C)c1CN1CCC(N(C)Cc2noc(C(C)C)n2)C1 (stereo not drawn)    5.99
CN(C)C(=O)c1ccc(-c2cccc3c2CCNC3)cc1    -18

stdin: Look up cytotoxicity at 70.5 h: `NC(=O)CC1CCN(C(=O)CCOc2ccc(Cl)cc2)CC1`
stdout: -1.2

stdin: Look up cytotoxicity at 70.5 h: `CC(=O)N1CCC(NC(=O)N(C)Cc2c(C)noc2C)CC1`
stdout: -8.21

stdin: Look up cytotoxicity at 70.5 h: O=C(C1CC1)N1CCC(O)(CN2CCN(c3ccccc3)CC2)C1 (stereo not drawn)
stdout: -4.63

stdin: Look up cytotoxicity at 70.5 h: `O=C(c1ccccn1)N1C[C@@H]2CC[C@H](C1)N(C(=O)CCc1cccs1)C2`
stdout: -5.4

stdin: Look up cytotoxicity at 70.5 h: `CC(C)Nc1nc(C(=O)Nc2ccccn2)cs1`
stdout: -13.8

stdin: Look up cytotoxicity at 70.5 h: `CSc1cccc(CN2CCC(CCC(=O)NC3CC3)CC2)c1`
stdout: -7.44

stdin: Look up cytotoxicity at 70.5 h: `O=C(O)c1cc(S(=O)(=O)Nc2cc(F)ccc2F)cc2c1OCCO2`
stdout: -3.33

stdin: Look up cytotoxicity at 70.5 h: Cc1cnn(CC2CCCN2CC(=O)N(C)Cc2ccco2)c1 (stereo not drawn)
stdout: -4.69

stdin: Look up cytotoxicity at 70.5 h: `CCCc1cc(C(=O)N[C@@H]2CC[C@@H](N3CCOCC3)[C@@H]2O)no1`
stdout: -5.49

stdin: Look up cytotoxicity at 70.5 h: `Cc1n[nH]c(=O)c2c(NC(=O)CN3CCC(C)CC3)oc(C)c12`
stdout: -10.7

stdin: Look up cytotoxicity at 70.5 h: `CN1CCN([C@@H]2CCN(CC3=Cc4cc(Cl)ccc4OC3)C[C@H]2O)CC1`
stdout: -0.445

stdin: Look up cytotoxicity at 70.5 h: c1ccc(OCC2C[C@@H]3[C@@H](C2)OCCN3Cc2ccoc2)nc1 (stereo partly drawn)
stdout: -0.172

stdin: Look up cytotoxicity at 70.5 h: `CN(C)CCn1c(=O)oc2ccc(NC(=O)N3CCCCCC3)cc21`
stdout: 35.5

stdin: Look up cytotoxicity at 70.5 h: `CN1CCN(C(=O)C2(S(C)(=O)=O)CCCC2)Cc2ccccc21`
stdout: -13.4

stdin: Look up cytotoxicity at 70.5 h: `Cc1cnn(CCNCc2nnc(Cc3ccccc3)o2)c1`
stdout: -1.13

stdin: Look up cytotoxicity at 70.5 h: `Cc1nc(CN(C)Cc2nc(-c3sccc3C)oc2C)no1`
stdout: -3

stdin: Look up cytotoxicity at 70.5 h: Cc1cc(C)c2c(N(C)CC3CCN(CC(C)C)C3)ncnc2n1 (stereo not drawn)
stdout: -2.13

stdin: Look up cytotoxicity at 70.5 h: `Cc1nnc2n1CCN(C(=O)c1cnc3c(cnn3C(C)C)c1)C2`
stdout: 25.5

stdin: Look up cytotoxicity at 70.5 h: CN(Cc1noc(C2CC2)n1)C1CCN(Cc2ccc(F)c(F)c2)C1 (stereo not drawn)
stdout: -8.17

stdin: Look up cytotoxicity at 70.5 h: `COCCN(C)C(=O)c1ccccc1-n1cc(CN(C)C)cn1`
stdout: -5.25

* * *

- method: Human HepG2 cell viability assay in 384 well format
- Type: toxicity, cell-based
- Parameters: dose 125 nL, time 70.5 hour; concentration not given beside the values
- condition_info: HepG2 cells, read-out: Inhibition
readout_type: cytotoxicity at 70.5 h (%)
Your answer is read as %, so omit the unit and give the number.

Here are 10 compounds together with their reported answers.
Cc1ncc(-c2ccncc2)c(C2CCN(C(=O)c3ccco3)CC2)n1    -2.42
COc1ccc2cccc(CC(=O)NCc3n[nH]c(=O)[nH]3)c2c1    -1.52
COc1cccc(S(=O)(=O)CCN2CCN(CC(F)F)CC2)c1    1.26
CC(C)c1nn(C)c(N2CCOCC2)c1CNCCS(C)(=O)=O    3.3
O=C1NCC[C@]12CN(CC1CCOCC1)C[C@H]2c1ccccc1    -7.01
CC(=O)N1CCN(C(=O)CNc2c(C)cccc2OC(F)F)CC1    -10.2
Cc1cc(C)c(CNC(=O)N(C)CC2CCCCO2)c(=O)[nH]1 (stereo unspecified)    -3.49
Cc1nnc(SCCCNC(=O)Nc2ccc3c(c2)OCO3)s1    11.4
Cc1nn2cc(CCNC(=O)c3cc(C(C)C)nn3C)nc2s1    6.04
COc1cccc(-c2cc(C(=O)NCCCC(F)(F)F)[nH]n2)c1    30.9

stdin: Look up cytotoxicity at 70.5 h: `COCc1cccc(CNCc2c(C(C)C)nn(C)c2N(C)C)c1`
stdout: -7.7

* * *

List of cytotoxicity at 70.5 h values.
- method: Human HepG2 cell viability assay in 384 well format
- Assay type: toxicity, cell-based
- Design: dose 125 nL, time 70.5 hour; concentration not given beside the values
- condition_info: HepG2 cells, read-out: Inhibition
Your answer is read as %, so omit the unit and give the number.

Cc1ncc(CNC(C)(C)CO)c2cc(C(=O)c3ccc(Br)cc3)oc12    -14.3
CCNc1ccnc(NCC2(N(C)C)CCOCC2)n1    -5.81
COc1c(CNCC(c2cccc(F)c2)N(C)C)c(C(C)C)nn1C (configuration not stated)    12.7

stdin: Look up cytotoxicity at 70.5 h: `CC(C)c1nc(CN(C)Cc2ccc(O)c(Cl)c2)cs1`
stdout: -13.5

stdin: Look up cytotoxicity at 70.5 h: `CC(=O)c1cccc(OCCCC(=O)N(C)C2CCN(C)CC2)c1`
stdout: -7.34

stdin: Look up cytotoxicity at 70.5 h: `c1ccc2c(c1)CCN(c1ncnc3sc4c(c13)CCNC4)C2`
stdout: -2.21

stdin: Look up cytotoxicity at 70.5 h: `COc1ncnc(N)c1CNCc1ccccc1-n1cccn1`
stdout: 6.74

stdin: Look up cytotoxicity at 70.5 h: `CC(C)C[C@H](NC(=O)CNC(=O)OC(C)(C)C)C(=O)OC(C)(C)C`
stdout: -0.919

* * *

- method: Human HepG2 cell viability assay in 384 well format
- Format: toxicity, cell-based
- Set-up: dose 125 nL, time 70.5 hour; concentration not given beside the values
- condition_info: HepG2 cells, read-out: Inhibition
List of cytotoxicity at 70.5 h values.
Your answer is read as %, so omit the unit and give the number.

Here are 8 compounds together with their reported answers.
CCCNC(=O)C1CCCN(Cc2ccc(-n3cncn3)c(C)c2)C1 (configuration not stated)    -1.68
CCc1nc(CN2CCN(C(=O)COCc3ccccc3)CC2)no1    -7.36
COc1ccccc1CNC(Cc1cccs1)c1nc(C)cs1 (configuration not stated)    3.54
Cn1cc(Cl)cc1C(=O)N1CCN(CCc2cccs2)CC1    -4.15
CN(Cc1ccon1)C(=O)C1CC(=O)N(Cc2ccncc2)C1 (configuration not stated)    -6.33
Cc1ccc(CNC2(Cc3cc(C(C)(C)O)on3)COC2)o1    -5.2
O=C(c1cocn1)N1C[C@@H]2CN(CC3CC3)CCO[C@@H]2C1    -1.55
Cc1ccccc1C(=O)N1CCOC(c2ncc(CN(C)C)[nH]2)C1 (configuration not stated)    -6.83

stdin: Look up cytotoxicity at 70.5 h: CN(C)C(=O)c1cccnc1N1CCOC(c2ccc(Cl)cc2)C1 (configuration not stated)
stdout: -12.8

stdin: Look up cytotoxicity at 70.5 h: `CCc1nc(-c2ccc(NC(=O)N3CCCC3)cc2)no1`
stdout: -19.3

stdin: Look up cytotoxicity at 70.5 h: CCOc1cc(CNC(=O)N2CCC(Cc3cnn(C)c3)C2)ccn1 (configuration not stated)
stdout: -10.6

stdin: Look up cytotoxicity at 70.5 h: CN(C)CC(=O)N1Cc2cc(N(C)C)ccc2C1c1cnco1 (configuration not stated)
stdout: -12.7

stdin: Look up cytotoxicity at 70.5 h: `Cn1ncc(N2CCOCC2)c(Cl)c1=O`
stdout: -7.54
